# ASSAY_SUMMARY: Selectivity ratio of IC50 for african green monkey Vero cells to IC50 for Trypanosoma brucei MITat 427 clone 221a trypomastigotes
# Type: ADME, cell-based
# REPORTED_CONDITIONS: read-out: Ratio IC50
Measured selectivity ratio, listed per entry.

Kindly note the recorded selectivity ratio for `COc1cc(CNCCCCCCCCCCNCc2ccc(OCc3ccccc3)c(OC)c2)ccc1OCc1ccccc1` , which is > 67

The reported value for `COc1ccc(CNCCCCNCc2ccc(OC)cc2)cc1` in terms of selectivity ratio is > 5

Lab book: selectivity ratio of `COc1ccc(CNCCCCCCCCNCc2ccc(OC)c(O)c2)cc1O` noted as > 2

# molecule `COc1cc(CNCCCCCCNCc2ccc(OCc3ccccc3)c(OC)c2)ccc1OCc1ccccc1` ; its selectivity ratio = > 44

// selectivity ratio value for `COc1ccc(CNCCCCCCCCNCc2ccc(OC)cc2)cc1` : > 2

Others:
So, `c1ccc(CNCCCNCc2ccccc2)cc1` ? Its selectivity ratio was > 3

Measured selectivity ratio, `COc1cc(CNCCCCCCCCNCc2ccc(OCc3ccccc3)c(OC)c2)ccc1OCc1ccccc1` : 24

Form field selectivity ratio, entry `COc1ccc(CNCCCNCc2ccc(OC)cc2)cc1` : > 7

Query `COc1cc(CNCCCNCc2ccc(OCc3ccccc3)c(OC)c2)ccc1OCc1ccccc1` yields selectivity ratio of 35

selectivity ratio measured on `COc1ccc(CNCCCCCCNCc2ccc(OC)cc2)cc1` = 60

In plain terms, `COc1cc(CNCCCCNCc2ccc(OCc3ccccc3)c(OC)c2)ccc1OCc1ccccc1` has a documented selectivity ratio of 52

The reported value for `COc1ccc(CNCCCCCCCCCCNCc2ccc(OC)c(O)c2)cc1O` in terms of selectivity ratio is > 11

---

// pIC50 lookup, one value per entry
# System: Trypanosoma brucei
# ASSAY_SUMMARY: Antitrypanosomal activity against Trypanosoma brucei MITat 427 clone 221a trypomastigotes after 3 days by alamar blue assay
# Type: functional, organism-based
# REPORTED_CONDITIONS: 72 h
To interpret pIC50, take it as minus log10 of a concentration measured in moles per litre.

Consider the reported pIC50 for these compounds:
So for `COc1ccc(CNCCCCCCNCc2ccc(OC)cc2)cc1` , the logged pIC50 turned out to be 6.66

Looking up `COc1ccc(CNCCCNCc2ccc(OC)cc2)cc1` , I see its pIC50 listed as 5.69

For reference, reported pIC50 for `COc1cc(CNCCCNCc2ccc(OCc3ccccc3)c(OC)c2)ccc1OCc1ccccc1` stands at 6.72

For `COc1ccc(CNCCCCNCc2ccc(OC)cc2)cc1` the compound record lists pIC50 as 5.49

The measured pIC50 associated with `COc1cc(CNCCCCCCCCCCNCc2ccc(OCc3ccccc3)c(OC)c2)ccc1OCc1ccccc1` reads 6.96

New cases:
For record `COc1cc(CNCCCCCCNCc2ccc(OCc3ccccc3)c(OC)c2)ccc1OCc1ccccc1` the listed pIC50 is 6.72

Item: CC1CS(=O)(=O)CCN1/N=C/c1ccc([N+](=O)[O-])o1 (configuration not stated) [NIFURTIMOX] | pIC50: 5.77

The compound identified as `COc1ccc(CNCCCCCCCCNCc2ccc(OC)c(O)c2)cc1O` registered its pIC50 at 5.26

response.value for `COc1ccc(CNCCCCCCCCNCc2ccc(OC)cc2)cc1` (field: pIC50) = 5.26

Documented pIC50 of `c1ccc(CNCCCNCc2ccccc2)cc1` : 5.19

Record `COc1cc(CNCCCCNCc2ccc(OCc3ccccc3)c(OC)c2)ccc1OCc1ccccc1` , field pIC50: 6.77

Memo: `COc1cc(CNCCCCCCCCNCc2ccc(OCc3ccccc3)c(OC)c2)ccc1OCc1ccccc1` , reported pIC50: 6.72

Noted for `COc1ccc(CNCCCCCCCCCCNCc2ccc(OC)c(O)c2)cc1O` : its pIC50 reads 6.02

---

# ASSAY_SUMMARY: Selectivity ratio of IC50 for african green monkey Vero cells to IC50 for Leishmania donovani S1 promastigotes
# Format: ADME, cell-based
# REPORTED_CONDITIONS: Vero cells versus Leishmania donovani S1 promastigotes, read-out: Ratio IC50
Catalogue of selectivity ratio readings, one per entry.

Lookup result for `COc1ccc(CNCCCCCCCCCCNCc2ccc(OC)cc2)cc1` ; measured selectivity ratio: > 8

`COc1ccc(CNCCCNCc2ccc(OC)cc2)cc1` yielded selectivity ratio of > 12

Entry `COc1ccc(CNCCCCCCNCc2ccc(OC)cc2)cc1` , selectivity ratio reported as 2

// `COc1cc(CNCCCCCCNCc2ccc(OCc3ccccc3)c(OC)c2)ccc1OCc1ccccc1` : selectivity ratio value = > 40

The molecule listed as `COc1ccc(CNCCCCCCCCCCNCc2ccc(OC)c(O)c2)cc1O` shows selectivity ratio equal to > 2

selectivity ratio measured on `COc1cc(CNCCCCNCc2ccc(OCc3ccccc3)c(OC)c2)ccc1OCc1ccccc1` = 37

The measured selectivity ratio associated with `COc1ccc(CNCCCCNCc2ccc(OC)cc2)cc1` reads > 2

Quick note, selectivity ratio for `COc1cc(CNCCCNCc2ccc(OCc3ccccc3)c(OC)c2)ccc1OCc1ccccc1` landed at 29

Noted for `COc1ccc(CNCCCCCCCCNCc2ccc(OC)cc2)cc1` : its selectivity ratio reads > 5

The recorded selectivity ratio for `COc1ccc(CNCCCCCCNCc2ccc(OC)c(O)c2)cc1O` is > 0.3

Next:
# molecule `COc1cc(CNCCCCCCCCNCc2ccc(OCc3ccccc3)c(OC)c2)ccc1OCc1ccccc1` ; its selectivity ratio = 21

The recorded selectivity ratio for `COc1ccc(CNCCCCCCCCNCc2ccc(OC)c(O)c2)cc1O` is > 0.3

Reported selectivity ratio ( `COc1cc(CNCCCCCCCCCCNCc2ccc(OCc3ccccc3)c(OC)c2)ccc1OCc1ccccc1` ) = > 6

For `c1ccc(CNCCCNCc2ccccc2)cc1` the molecule record lists selectivity ratio as > 27

---

# ASSAY_SUMMARY: Selectivity ratio of IC50 for african green monkey Vero cells to IC50 for Trypanosoma cruzi clone CL-Brener epimastigotes
# Assay type: ADME, cell-based
# REPORTED_CONDITIONS: read-out: Ratio IC50
PROPERTY_MEASURED: selectivity ratio
When you answer, write just the number.

Here are 2 compounds together with their reported answers.
Per the record, `COc1cc(CNCCCNCc2ccc(OCc3ccccc3)c(OC)c2)ccc1OCc1ccccc1` has selectivity ratio of 8

Field selectivity ratio (entry `COc1cc(CNCCCCNCc2ccc(OCc3ccccc3)c(OC)c2)ccc1OCc1ccccc1` ) reads 12

Please turn your attention to the following entry.
For `COc1cc(CNCCCCCCCCNCc2ccc(OCc3ccccc3)c(OC)c2)ccc1OCc1ccccc1` the compound record lists selectivity ratio as 6

---

# ASSAY_SUMMARY: Selectivity ratio of IC50 for african green monkey Vero cells to IC50 for Trypanosoma cruzi clone CL-Brener epimastigotes
# Type: ADME, cell-based
# REPORTED_CONDITIONS: read-out: Ratio IC50
PROPERTY_MEASURED: selectivity ratio

Input `COc1cc(CNCCCCCCNCc2ccc(OCc3ccccc3)c(OC)c2)ccc1OCc1ccccc1` . Output selectivity ratio: > 11

Item: `COc1ccc(CNCCCCCCCCCCNCc2ccc(OC)cc2)cc1` | selectivity ratio: > 5

Per the records, this compound ( `COc1cc(CNCCCCCCCCCCNCc2ccc(OCc3ccccc3)c(OC)c2)ccc1OCc1ccccc1` ) has selectivity ratio equal to > 10
